# System: CEM cells HIV-1 protection, formazan growth assay
# ASSAY_INFO: NCI AIDS Antiviral Assay
The source made the active and inactive calls.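 The calls were made as follows: active = compounds giving half or more protection of infected cells from virus-caused growth loss, again on retest; inactive = the rest.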
Classes used: active, inactive

- COMPOUND: "COc1ccc2c3c([nH]c2c1[N+](=O)[O-])C(C)N(Cc1ccc([N+](=O)[O-])cc1)CC3 (stereo not drawn)"
  ANSWER_LABEL: "inactive"
- COMPOUND: "c1ccc2c(NCCCCCCCCNc3c4ccccc4nc4ccccc34)c3ccccc3nc2c1"
  ANSWER_LABEL: "inactive"
- COMPOUND: "CCOc1ccc(O)cc1[P+](c1ccccc1)(c1ccccc1)c1ccccc1"
  ANSWER_LABEL: "inactive"
- COMPOUND: "COc1ccc(S(=O)(=O)NC(C)C(=O)O)cc1 (stereo not drawn)"
  ANSWER_LABEL: "inactive"
- COMPOUND: "Cc1cc(C)c2c(c1C)CN1CN2Cc2c(C)c(C)cc(C)c21"
  ANSWER_LABEL: "inactive"
- COMPOUND: "CCn1c(=O)nc2n(-c3ccc(SC)cc3)c3ccccc3nc-2c1=O"
  ANSWER_LABEL: "inactive"
- COMPOUND: "CC1(C)CC(=O)C2=C(C1)Nc1ccccc1S2"
  ANSWER_LABEL: "inactive"
- COMPOUND: "COC(=O)CCCC=C(c1cc(Cl)c(OC)c(C2=NC(C)(C)CO2)c1)c1cc(Cl)c(OC)c(C2=NC(C)(C)CO2)c1"
  ANSWER_LABEL: "inactive"
- COMPOUND: "CN(C)C(=S)/N=c1\\ssc(=S)n1C"
  ANSWER_LABEL: "inactive"
- COMPOUND: "N#C/C(=C\\N1CC(=O)NC1=S)c1nc2ccccc2s1"
  ANSWER_LABEL: "inactive"
- COMPOUND: "O=C1c2ccccc2C(=O)C12CCc1ccccc12"
  ANSWER_LABEL: "inactive"
- COMPOUND: "NC(=O)c1ncn2c1NC(=O)CC2"
  ANSWER_LABEL: "inactive"
- COMPOUND: "Nc1ccc2cc(S(=O)(=O)O)c(N=Nc3ccc(-c4ccc(N=Nc5c(S(=O)(=O)O)cc6cc(S(=O)(=O)O)c(N=Nc7cccc([N+](=O)[O-])c7)c(N)c6c5O)cc4)cc3)c(O)c2c1"
  ANSWER_LABEL: "active"
- COMPOUND: "CC1(C)OC(=O)[C@@](C)([C@H](O)c2ccccc2)O1"
  ANSWER_LABEL: "inactive"
- COMPOUND: "CCN(CC)CC1CCCCCCCCCCC1=O (stereo not drawn)"
  ANSWER_LABEL: "inactive"
- COMPOUND: "O=C(C(O)c1cn(Cc2ccccc2)c2ccccc12)N1CCCCC1 (stereo not drawn)"
  ANSWER_LABEL: "inactive"
- COMPOUND: "CN(C)c1nc(N(C)C)sc(=O)n1"
  ANSWER_LABEL: "inactive"
- COMPOUND: "O=C(NC12CC3CC(CC(C3)C1)C2)C(=O)c1c[nH]c2ccccc12"
  ANSWER_LABEL: "inactive"
- COMPOUND: "Cn1c(=O)c2c(=O)cc(N)[nH]c2n(C)c1=O"
  ANSWER_LABEL: "inactive"
- COMPOUND: "COc1cc2c(Cc3cc(OCc4ccccc4)ccc3N)nccc2c(OC)c1OC"
  ANSWER_LABEL: "inactive"
- COMPOUND: "Cc1cc(C)c2c(c1N)C(=O)CCO2"
  ANSWER_LABEL: "inactive"
- COMPOUND: "O=C(O)c1cc(-n2c(-c3ccccc3)cc3c2CCc2ccccc2-3)ccc1O"
  ANSWER_LABEL: "inactive"
- COMPOUND: "Clc1nc(NC2CCCCC2)nc(NC2CCCCC2)n1"
  ANSWER_LABEL: "inactive"
